- Study system: CDK19/CycC (Homo sapiens, UniProt Q9BWU1)
- Sequence (Q9BWU1 whole entry): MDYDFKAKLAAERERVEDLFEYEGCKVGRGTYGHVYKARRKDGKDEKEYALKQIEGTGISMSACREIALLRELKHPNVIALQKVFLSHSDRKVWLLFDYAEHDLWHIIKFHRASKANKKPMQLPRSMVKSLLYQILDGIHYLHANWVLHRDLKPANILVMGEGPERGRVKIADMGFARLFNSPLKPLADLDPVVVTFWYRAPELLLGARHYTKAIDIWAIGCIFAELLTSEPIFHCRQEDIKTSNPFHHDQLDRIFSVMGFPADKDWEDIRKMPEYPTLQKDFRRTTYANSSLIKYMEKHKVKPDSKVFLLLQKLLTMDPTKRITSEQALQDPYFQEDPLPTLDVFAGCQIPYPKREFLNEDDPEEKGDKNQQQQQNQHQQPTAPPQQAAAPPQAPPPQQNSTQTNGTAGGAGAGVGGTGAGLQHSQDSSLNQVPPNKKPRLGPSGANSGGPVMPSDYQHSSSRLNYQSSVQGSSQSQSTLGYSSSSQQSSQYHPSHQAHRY
- Sequence (P24863 whole entry partner): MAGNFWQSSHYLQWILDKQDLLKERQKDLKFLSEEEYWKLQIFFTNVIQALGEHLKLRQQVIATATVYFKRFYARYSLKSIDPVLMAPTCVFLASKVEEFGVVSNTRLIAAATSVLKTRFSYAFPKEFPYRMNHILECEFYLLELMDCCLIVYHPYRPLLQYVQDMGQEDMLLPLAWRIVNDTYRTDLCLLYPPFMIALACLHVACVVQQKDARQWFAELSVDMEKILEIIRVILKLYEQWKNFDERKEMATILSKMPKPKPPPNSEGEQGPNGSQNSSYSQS
- Test details: LanthaScreen europium kinase binding assay (FRET displacement), CDK19
- Condition parameters: his-tagged CDK19/CycC 5 nM, tracer 10 nM, 3 h incubation
Property name: pIC50
Answers are plain numbers, as −log10 of the molar value.

Fc1ccc(Nc2ccc(Nc3ccncc3)cn2)cc1 | 5.00
Cc1cnccc1Nc1cnc(Nc2ccc(C3CCC3)cc2)nc1 | 7.89
c1cc(Nc2cnc(Nc3ccc(C4CCC4)cc3)nc2)ccn1 | 8.02
c1cc(Nc2cnc(Nc3ccc(C4CCOCC4)cc3)nc2)c(OC2CCCC2)cn1 | 8.40

Input line: Please report the recorded pIC50 for `CC(C)Cc1ccc(Nc2ccc(Oc3ccncc3)cn2)cc1` .
Output line: 5.23

---

Could you please report measured IC50 for the items listed next?
- Study system: CDK19/CycC (Homo sapiens, UniProt Q9BWU1)
- Test details: LanthaScreen europium kinase binding assay (FRET displacement), CDK19
- Condition parameters: his-tagged CDK19/CycC 5 nM, tracer 10 nM, 3 h incubation
Answers are plain numbers, in nM.

Some compounds with recorded IC50:
CC(C)Cc1ccc(Nc2ncc(-c3ccc(C#N)cc3)cn2)cc1 [Compound A89] | 10000
Cc1cnccc1Nc1cnc(Nc2ccc(OC(C)C)cc2F)nc1 [Compound A162] | 89
Cc1nc(Nc2ccc(CC(C)C)cc2)ncc1Nc1ccncc1C(F)(F)F [Compound A166] | 5

Record IC50 per entry; entries follow.
1. COc1cc(CC(C)C)ccc1Nc1ncc(C(=O)c2ccncc2OC2CCCC2)cn1 [Compound A171]
2. Cc1cnccc1Nc1cnc(Nc2cccc(CC(C)C)c2)nc1 [Compound A32]
3. CC(C)Cc1ccc(Nc2ncc(Nc3ccc4c(c3)CNC4=O)cn2)cc1 [Compound A153]
4. Cc1cnc(F)cc1Nc1cnc(Nc2ccc(CC(C)C)cc2)nc1 [Compound A150]
5. FC(F)C(F)(F)Oc1ccc(Nc2ncc(Nc3ccncc3OC3CCCC3)cn2)cc1 [Compound A67]

Output line:
16
378
266
23
106

---

- Study system: CDK19/CycC (Homo sapiens)
- Test details: LanthaScreen europium kinase binding assay (FRET displacement), CDK19
- Condition parameters: his-tagged CDK19/CycC 5 nM, tracer 10 nM, 3 h incubation
Could you please report measured IC50 for the items listed next?
Answers are plain numbers, in nM.

Some compounds with recorded IC50:
Cc1cc(Nc2cnc(Nc3ccc(CC4CC4)cc3)nc2)ccn1 | 449
CC(C)Cc1ccc(Nc2ncc(Nc3ccnc(C4CC4)c3)cn2)cc1 | 52
Cc1cc(C#N)cc(-c2cnc(Nc3ccc(CC(C)C)cc3)nc2)c1 | 438

Record IC50 per entry; entries follow.
1. CC(C)Cc1ccc(Nc2ccc(-c3ccccc3)cn2)cc1
2. Cc1cc(Nc2cnc(Nc3ccc(CC(C)C)cc3)nc2)c(C)cn1
3. CC(C)Cc1ccc(Nc2ncc(C(=O)c3cccnc3)cn2)cc1
4. CC(C)Cc1ccc(Nc2ncc(-c3cccc(-c4ccncc4)c3)cn2)cc1
5. CC(C)Cc1ccc(Nc2ncc(Nc3ccncc3-c3cnn(C4CC4)c3)cn2)cc1
6. Cc1cc(Nc2cnc(Nc3cccc(C4CC4)c3)nc2)cc(C)n1
7. CC(C)Cc1ccc(Nc2ncc(C(=O)c3ccncc3Cl)cn2)cc1
8. Cc1cc(Nc2cnc(Nc3ccc(C4CC4)cc3)nc2)ccn1

Output line:
1: 1720; 2: 1160; 3: 265; 4: 6; 5: 24; 6: 10000; 7: 3.7; 8: 419

Record IC50 per entry; entries follow.
1. COc1cnccc1Nc1cnc(Nc2ccc(CC(C)C)cc2)nc1C
2. CC(C)Cc1ccc(Nc2ncc(C(C)(O)c3ccncc3)cn2)cc1 (stereo not shown)
3. Cc1cnccc1Nc1cnc(Nc2ccc(C3CCCCC3)cc2)nc1

Output line:
1: 16; 2: 154; 3: 18
